// pIC50 lookup, one value per entry
# Tested on: Elastase (Pseudomonas aeruginosa (strain ATCC 15692 / PAO1 / 1C / PRS 101 / LMG12228), UniProt P14756)
# Sequence (P14756 whole entry): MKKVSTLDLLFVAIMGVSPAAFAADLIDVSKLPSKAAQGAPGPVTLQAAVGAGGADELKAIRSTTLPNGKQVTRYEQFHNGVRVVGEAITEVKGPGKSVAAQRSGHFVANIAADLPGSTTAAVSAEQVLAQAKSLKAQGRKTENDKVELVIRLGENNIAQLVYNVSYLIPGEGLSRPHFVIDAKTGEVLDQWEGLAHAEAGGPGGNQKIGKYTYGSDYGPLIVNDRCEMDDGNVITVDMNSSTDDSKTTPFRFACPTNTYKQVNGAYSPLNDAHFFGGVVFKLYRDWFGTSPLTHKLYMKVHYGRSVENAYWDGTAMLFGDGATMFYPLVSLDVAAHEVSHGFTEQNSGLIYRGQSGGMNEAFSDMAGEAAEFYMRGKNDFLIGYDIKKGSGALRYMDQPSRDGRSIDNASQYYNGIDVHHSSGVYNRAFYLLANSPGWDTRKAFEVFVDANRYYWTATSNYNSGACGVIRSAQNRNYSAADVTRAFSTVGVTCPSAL
# Protocol notes: Inhibition of Pseudomonas aeruginosa pseudolysin using Abz-Ala-Gly-Leu-Ala-p-nitrobenzylamide as substrate after 15 mins
pIC50: −log10 of the molar value.

>>> measurement("O=C(O)CN(CC(=O)NO)NCCCN1CCN(c2ccccc2)CC1")
"< 3.48"
>>> measurement("COc1ccc(S(=O)(=O)N(CC(=O)O)CC(=O)NCCc2ccc(S(N)(=O)=O)cc2)cc1")
"< 3.55"
>>> measurement("O=C(O)CN(CC(=O)NO)S(=O)(=O)c1ccc(-c2ccccc2)cc1")
"< 3.82"
>>> measurement("O=C(O)CN(CC(=O)NO)Cc1ccc(-c2ccccc2)cc1")
"< 3.92"
>>> measurement("O=C(O)CN(CC(=O)NO)S(=O)(=O)c1ccc(Oc2ccccc2)cc1")
"< 3.73"

Let me know recorded pIC50 for O=C(O)CN(CC(=O)NO)Cc1ccc(Oc2ccccc2)cc1 , thanks.
< 3.70
